All figures here come from patent US8927499B2.

Run description: Color stability test (accelerated, 45° C. oven)
Assay type: physicochemical
Experimental context: 0.5 wt % aqueous solution, 28 days
Where a SMILES comes first, the peptide text is derived from it. [ ]: non-standard residue; d: D form. Sar = CNCC(=O)O
Would you mind telling me the reported Transmittance % (440 nm) of each entry?
Give bare numbers, in %.

The examples below pair each entry with its known result.
CC(=O)NCC(=O)NCCCC(=O)O [Compound (III)]
99.5
CC(=O)NCC(=O)N(C)CC(=O)O [Compound (IV)] (Ac-Gly-[Sar]-OH)
100

Return reported Transmittance % (440 nm) values for all items listed beneath this line.
1. O=c1cc(CO)occ1O [Kojic acid]
2. O=C1O[C@H]([C@@H](O)CO)C(O)=C1O[C@H]1O[C@H](CO)[C@@H](O)[C@H](O)[C@H]1O [ascorbic acid 2-glucoside (AA2G), ascorbic acid 2-glucoside]

1: 81; 2: 96.9

----------
Run description: Color stability test (accelerated, 45° C. oven)
Assay type: physicochemical
Experimental context: 0.5 wt % aqueous solution, 14 days
Description: The test samples (compounds (II), (III), and (IV)) and the reference sample are separately dissolved in water and a buffer solution with pH=6 to prepare 0.5 wt % solutions. The buffer solution with pH=6 is a mixture solution of 3.8 ml 0.1M citric acid and 16.2 ml citrate. […] of a test sample are dissolved in the mixture solution to prepare a 0.5 wt % solution. Then, the solutions are placed in a 45° C. oven to perform an accelerated color stability test. […]
Where a SMILES comes first, the peptide text is derived from it. [ ]: non-standard residue; d: D form. Sar = CNCC(=O)O
Metric name: Transmittance % (440 nm) (%)
Answers are plain numbers, in %.

Worked cases, Transmittance % (440 nm) given:
CC(=O)NCC(=O)NCCCC(=O)O [Compound (III)]
99.6
O=c1cc(CO)occ1O [Kojic acid]
94.9
CC(=O)NCC(=O)N(C)CC(=O)O [Compound (IV)] (Ac-Gly-[Sar]-OH)
99.7

Fill in Transmittance % (440 nm) for each of the 4 compounds listed.
1. OC[C@H]1O[C@@H](Oc2ccc(O)cc2)[C@H](O)[C@@H](O)[C@@H]1O [arbutin]
2. O=C1O[C@H]([C@@H](O)CO)C(O)=C1O[C@H]1O[C@H](CO)[C@@H](O)[C@H](O)[C@H]1O [ascorbic acid 2-glucoside (AA2G), ascorbic acid 2-glucoside]
3. O=C1O[C@H]([C@@H](O)CO)C(O)=C1O [Ascorbic acid]
4. CC(=O)NCC(=O)NCCC(=O)O [Compound (II)]

96.7
97.8
37.8
98.9

----------
Run description: Color stability test (accelerated, 45° C. oven)
Assay type: physicochemical
Experimental context: 0.5 wt % in citric acid buffer solution pH = 6, 28 days
Procedure: The test samples (compounds (II), (III), and (IV)) and the reference sample are separately dissolved in water and a buffer solution with pH=6 to prepare 0.5 wt % solutions. The buffer solution with pH=6 is a mixture solution of 3.8 ml 0.1M citric acid and 16.2 ml citrate. […] of a test sample are dissolved in the mixture solution to prepare a 0.5 wt % solution. Then, the solutions are placed in a 45° C. oven to perform an accelerated color stability test. […]
Where a SMILES comes first, the peptide text is derived from it. [ ]: non-standard residue; d: D form. Sar = CNCC(=O)O
Please provide measured Transmittance % (440 nm) for the entries that follow.
Give bare numbers, in %.

CC(=O)NCC(=O)N(C)CC(=O)O [Compound (IV)] (Ac-Gly-[Sar]-OH)
100
O=C1O[C@H]([C@@H](O)CO)C(O)=C1O [Ascorbic acid]
2.1
CCOC1=C(O)C(=O)O[C@@H]1[C@@H](O)CO [ethyl ascorbic acid]
97.5

Could you tell me Transmittance % (440 nm) for each of these molecules? They are listed below.
1. O=c1cc(CO)occ1O [Kojic acid]
2. O=C1O[C@H]([C@@H](O)CO)C(O)=C1OP(=O)([O-])[O-].[Mg+2] [ascorbic acid 2-phosphate magnesium]
3. CC(=O)NCC(=O)NCCCC(=O)O [Compound (III)]
4. CC(=O)NCC(=O)NCCC(=O)O [Compound (II)]

1: 4.0; 2: 80.9; 3: 99.9; 4: 99.3
